Tested system: 17-beta-hydroxysteroid dehydrogenase type 2 (Homo sapiens)
Measurement protocol: Inhibition of human recombinant 17beta-HSD2 expressed in HEK293 cell lysate assessed as conversion of radiolabeled estrone to estradiol at 40 uM
Format: cell-free
Design: scale not given: the % may be the effect or the level left
Recorded metric: Activity
In your response, the unit should come after the numeric value.

Below are worked cases with known answers.
compound=O=C1C[C@@H](c2ccc(O)cc2)Oc2cc(O)cc(O)c21 recorded_metric=Activity assay_value=12.6%
compound=O=c1cc(-c2ccccc2)oc2cc(O)cc(O)c12 recorded_metric=Activity assay_value=32.8%
compound=COc1ccc([C@@H]2CC(=O)c3c(O)cc(O)cc3O2)cc1O recorded_metric=Activity assay_value=36.4%

## Task Data request, read-out Activity, for `CC1(C)[C@@H](O)CC[C@]2(C)[C@H]3C(=O)C=C4[C@@H]5C[C@@](C)(C(=O)O)CC[C@]5(C)CC[C@@]4(C)[C@]3(C)CC[C@@H]12`
## Result 24.5%

## Task Data request, read-out Activity, for `O=c1cc(-c2ccccc2)oc2ccccc12`
## Result 63.9%

## Task Data request, read-out Activity, for O=S1OCC2C(CO1)C1(Cl)C(Cl)=C(Cl)C2(Cl)C1(Cl)Cl (stereo not drawn) [ENDOSULFAN]
## Result 51.1%
